target: Human immunodeficiency virus type 1 reverse transcriptase (Human immunodeficiency virus 1, UniProt Q72547); assay: Inhibitory concentration against HIV-1 reverse transcriptase
EC50 strictly less than 0.05 µM = True. Otherwise False.

{"given_smiles": "CCOCn1c(Sc2cc(C)cc(C)c2)c(CC)c(=O)[nH]c1=S", "label_value": "True"}
{"given_smiles": "Cc1c(Sc2ccccc2)n(COCc2ccccc2)c(=O)[nH]c1=O", "label_value": "False"}
{"given_smiles": "CCOCn1c(Sc2ccccc2)c(C2CC2)c(=O)[nH]c1=O", "label_value": "False"}
{"given_smiles": "Cc1c(Sc2cccc(C(F)(F)F)c2)n(COCCO)c(=O)[nH]c1=O", "label_value": "False"}
{"given_smiles": "Cc1c(Sc2ccccc2[N+](=O)[O-])n(COCCO)c(=O)[nH]c1=O", "label_value": "False"}
{"given_smiles": "CCc1c(Sc2ccccc2)n(COCc2ccccc2)c(=S)[nH]c1=O", "label_value": "True"}
{"given_smiles": "Cc1ccccc1Sc1c(C)c(=O)[nH]c(=O)n1COCCO", "label_value": "False"}
{"given_smiles": "COCCn1c(Cc2ccccc2)c(C(C)C)c(=O)[nH]c1=O", "label_value": "False"}
{"given_smiles": "CCc1c(Sc2ccccc2)n(COC2CCCCC2)c(=S)[nH]c1=O", "label_value": "False"}
{"given_smiles": "Cc1c(Sc2ccc(C3CCCCC3)cc2)n(COCCO)c(=O)[nH]c1=O", "label_value": "False"}
{"given_smiles": "COc1ccccc1Sc1c(C)c(=O)[nH]c(=O)n1COCCO", "label_value": "False"}
{"given_smiles": "C=Cc1c(Sc2ccccc2)n(COCCO)c(=O)[nH]c1=O", "label_value": "False"}
{"given_smiles": "CCc1c(Sc2cc(C)cc(C)c2)n(C/C=C/c2cccs2)c(=O)[nH]c1=O", "label_value": "True"}
{"given_smiles": "CC(C)c1c(Sc2ccccc2)n(COCc2ccccc2)c(=S)[nH]c1=O", "label_value": "True"}
{"given_smiles": "CCOCn1c(Sc2ccccc2)c(CC)c(=O)[nH]c1=O", "label_value": "True"}
{"given_smiles": "Cc1c(Sc2cccc(C#N)c2)n(COCCO)c(=O)[nH]c1=O", "label_value": "False"}
{"given_smiles": "CCc1c(Sc2ccccc2)n(COCc2ccccc2)c(=O)[nH]c1=O", "label_value": "True"}
{"given_smiles": "Cc1c(Sc2cccc(O)c2)n(COCCO)c(=O)[nH]c1=O", "label_value": "False"}
{"given_smiles": "CCCOCn1c(Sc2ccccc2)c(C)c(=O)[nH]c1=O", "label_value": "False"}
{"given_smiles": "CC(=O)c1cccc(Sc2c(C)c(=O)[nH]c(=O)n2COCCO)c1", "label_value": "False"}
{"given_smiles": "Cc1c(Oc2ccccc2)n(COCCO)c(=O)[nH]c1=O", "label_value": "False"}
{"given_smiles": "Cc1cc(C)cc(Sc2c(C(C)C)c(=O)[nH]c(=S)n2COCCO)c1", "label_value": "True"}
{"given_smiles": "CCOCn1c(Sc2ccccc2)c(C(C)C)c(=O)[nH]c1=S", "label_value": "True"}

###

target: Human immunodeficiency virus type 1 reverse transcriptase (Human immunodeficiency virus 1); assay: Inhibitory concentration against HIV-1 reverse transcriptase
experimental_endpoint: log10 of EC50 (log10 of the value in nM)

{"given_smiles": "Cc1c(Sc2ccccc2)n(C/C=C/c2cccnc2)c(=O)[nH]c1=O", "measured_number": 2.00}
{"given_smiles": "CCc1c(Sc2cc(C)cc(C)c2)n(COCc2ccccc2)c(=S)[nH]c1=O", "measured_number": 0.84}
{"given_smiles": "CC(C)c1c(Sc2ccccc2)n(COCc2ccccc2)c(=O)[nH]c1=O", "measured_number": 0.43}
{"given_smiles": "Cc1c(Sc2cccc(Br)c2)n(COCCO)c(=O)[nH]c1=O", "measured_number": 3.76}
{"given_smiles": "CCc1c(Sc2ccccc2)n(COCCc2ccccc2)c(=O)[nH]c1=O", "measured_number": 1.98}
{"given_smiles": "Cc1cc(C)cc(Cc2c(C(C)C)c(=O)[nH]c(=O)n2COCCO)c1", "measured_number": 0.43}
{"given_smiles": "Cc1cc(C)cc(Sc2c(C)c(=O)[nH]c(=S)n2COCCO)c1", "measured_number": 2.34}
{"given_smiles": "CCc1c(Sc2ccccc2)n(C/C=C/c2cccs2)c(=O)[nH]c1=O", "measured_number": 1.90}
{"given_smiles": "CCc1cccc(Sc2c(C)c(=O)[nH]c(=O)n2COCCO)c1", "measured_number": 3.43}
{"given_smiles": "CC(C)c1c(Cc2ccccc2)n(COCCO)c(=O)[nH]c1=O", "measured_number": 1.80}
{"given_smiles": "Cc1c(Sc2cccc(C(C)(C)C)c2)n(COCCO)c(=O)[nH]c1=O", "measured_number": 4.08}
{"given_smiles": "COCn1c(Sc2ccccc2)c(C)c(=O)[nH]c1=O", "measured_number": 3.32}
{"given_smiles": "CCOCn1c(Sc2cc(C)cc(C)c2)c(CC)c(=O)[nH]c1=O", "measured_number": 0.73}
{"given_smiles": "CCc1c(Cc2cc(C)cc(C)c2)n(COCCO)c(=O)[nH]c1=O", "measured_number": 1.11}
{"given_smiles": "CCc1c(Sc2cc(C)cc(C)c2)n(COCCO)c(=S)[nH]c1=O", "measured_number": 0.89}
{"given_smiles": "CCOCn1c(Sc2ccccc2)c(CC)c(=O)[nH]c1=S", "measured_number": 1.41}
{"given_smiles": "CCOCn1c(Cc2cc(C)cc(C)c2)c(CC)c(=O)[nH]c1=O", "measured_number": 0.20}
{"given_smiles": "CCc1c(Sc2ccccc2)n(COC2CCCCC2)c(=O)[nH]c1=O", "measured_number": 3.60}
{"given_smiles": "CCc1c(Sc2ccccc2)n(COCc2ccc(C)cc2)c(=S)[nH]c1=O", "measured_number": 1.89}
{"given_smiles": "CCOCn1c(Sc2ccccc2)c(C2CC2)c(=O)[nH]c1=S", "measured_number": 1.98}
{"given_smiles": "Cc1c(Sc2ccccc2)n(C/C=C/c2ccccc2)c(=O)[nH]c1=O", "measured_number": 3.40}
{"given_smiles": "Cc1c(Sc2cc(Cl)cc(Cl)c2)n(COCCO)c(=O)[nH]c1=O", "measured_number": 3.11}
{"given_smiles": "Cc1c(Sc2cccc(Cl)c2)n(COCCO)c(=O)[nH]c1=O", "measured_number": 4.11}

###

target: Human immunodeficiency virus type 1 reverse transcriptase (Human immunodeficiency virus 1); experiment: Inhibitory concentration against HIV-1 reverse transcriptase
pEC50: −log10 of the molar value.

{"given_smiles": "Cc1cccc(Sc2c(C)c(=O)[nH]c(=O)n2COCCO)c1", "pEC50": 5.59}
{"given_smiles": "COc1cccc(Sc2c(C)c(=O)[nH]c(=O)n2COCCO)c1", "pEC50": 4.66}
{"given_smiles": "CCOCn1c(Sc2cc(Cl)cc(Cl)c2)c(CC)c(=O)[nH]c1=O", "pEC50": 8.13}
{"given_smiles": "CCOCn1c(Sc2ccccc2)c(C(C)C)c(=O)[nH]c1=O", "pEC50": 7.92}
{"given_smiles": "CC(C)c1c(Sc2ccccc2)n(COCCO)c(=O)[nH]c1=O", "pEC50": 7.20}
{"given_smiles": "CCc1c(Sc2ccccc2)n(COCC2CCCCC2)c(=O)[nH]c1=O", "pEC50": 6.35}
{"given_smiles": "CCOCn1c(Cc2ccccc2)c(C(C)C)c(=O)[nH]c1=O", "pEC50": 8.38}
{"given_smiles": "Cc1c(Sc2cccc(F)c2)n(COCCO)c(=O)[nH]c1=O", "pEC50": 5.48}
{"given_smiles": "CCOCn1c(Cc2ccccc2)c(CC)c(=O)[nH]c1=O", "pEC50": 7.39}
{"given_smiles": "CCc1c(Sc2ccccc2)n(COCC2CCCCC2)c(=S)[nH]c1=O", "pEC50": 6.46}
{"given_smiles": "CCc1c(Sc2cc(Cl)cc(Cl)c2)n(COCCO)c(=S)[nH]c1=O", "pEC50": 7.37}

###

molecular target: Human immunodeficiency virus type 1 reverse transcriptase (Human immunodeficiency virus 1, UniProt Q72547); assay: Inhibitory concentration against HIV-1 reverse transcriptase
experimental_endpoint: log10 of EC50 (log10 of the value in nM)

{"given_smiles": "CCc1c(Sc2ccccc2)n(CCCc2ccccc2)c(=O)[nH]c1=O", "log10 of EC50": 2.46}
{"given_smiles": "CCc1c(Cc2ccccc2)n(COCCO)c(=O)[nH]c1=O", "log10 of EC50": 2.54}
{"given_smiles": "Cc1ccc(Sc2c(C)c(=O)[nH]c(=O)n2COCCO)cc1", "log10 of EC50": 5.34}
{"given_smiles": "CCc1c(Sc2ccccc2)n(COCc2ccc(Cl)cc2)c(=S)[nH]c1=O", "log10 of EC50": 1.08}
{"given_smiles": "CCn1c(Sc2ccccc2)c(C)c(=O)[nH]c1=O", "log10 of EC50": 3.34}
{"given_smiles": "O=c1[nH]c(=O)n(COCCO)c(Sc2ccccc2)c1I", "log10 of EC50": 3.63}
{"given_smiles": "Cc1c(Sc2cccc([N+](=O)[O-])c2)n(COCCO)c(=O)[nH]c1=O", "log10 of EC50": 4.53}
{"given_smiles": "CCOCn1c(Sc2cc(Cl)cc(Cl)c2)c(CC)c(=O)[nH]c1=S", "log10 of EC50": 1.11}
{"given_smiles": "CCc1c(Sc2cc(Cl)cc(Cl)c2)n(COCCO)c(=O)[nH]c1=O", "log10 of EC50": 1.15}
{"given_smiles": "CCc1c(Sc2ccccc2)n(C/C=C/c2ccccc2)c(=O)[nH]c1=O", "log10 of EC50": 2.28}
{"given_smiles": "CCc1c(Sc2cc(C)cc(C)c2)n(C/C=C/c2ccco2)c(=O)[nH]c1=O", "log10 of EC50": 1.60}
